Entry source: paper PMC3335879

# TARGET_OF_ASSAY: T brucei NMT (Trypanosoma brucei brucei, UniProt Q388H8)
# Construct: made in house
# Sequence (Q388H8 1-446): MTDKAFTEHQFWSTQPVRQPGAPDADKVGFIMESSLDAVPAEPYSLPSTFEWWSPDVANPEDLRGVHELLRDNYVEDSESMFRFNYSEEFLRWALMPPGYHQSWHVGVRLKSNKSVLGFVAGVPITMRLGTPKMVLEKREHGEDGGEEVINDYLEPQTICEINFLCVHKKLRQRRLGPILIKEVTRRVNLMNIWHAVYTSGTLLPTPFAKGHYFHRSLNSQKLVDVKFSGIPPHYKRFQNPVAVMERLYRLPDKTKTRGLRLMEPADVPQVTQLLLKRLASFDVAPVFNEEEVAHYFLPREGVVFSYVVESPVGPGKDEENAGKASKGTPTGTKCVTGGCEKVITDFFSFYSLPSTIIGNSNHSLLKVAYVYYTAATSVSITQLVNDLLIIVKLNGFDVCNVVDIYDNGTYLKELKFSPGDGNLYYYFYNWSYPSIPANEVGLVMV
# TEST_NAME: T. brucei NMT scintillation proximity dose-response assay
# Type: biochemical
# CONDITIONS: Table 2; single determination; read-out: Tb IC50
MEASURED_METRIC: IC50

Some solved entries appear below for comparison.
STRUCTURE_SMILES	TARGET_OF_ASSAY	IC50
CNCC(=O)N1CC[C@@H](NC(=O)c2ccccc2C(F)(F)F)C1	T brucei NMT (Trypanosoma brucei brucei, UniProt Q388H8)	> 80 µM
c1cncc(CCNCc2cccc(-c3cccc(CN4CCc5ncsc5C4)c3)c2)c1	T brucei NMT (Trypanosoma brucei brucei, UniProt Q388H8)	> 80 µM

Identify IC50 associated with the compound Cc1cnc(CNC(=O)C2CN(c3nc(NCCN(C)C)ncc3Cl)C2)cn1
> 80 µM
